Data credit: patent US8993622B2

Could you please report measured inhibition at 5 µM for the items listed next?
Tested on: Ad5
Experiment: microbe, parasite or virus in culture
Assay type: cell-based, human adenovirus
Settings: unidentified adenovirus, A549, read-out: % Inh. at 5 μM
Field: numeric (%). Do not append units.

*Q* Query (molecule): O=C(Nc1cc(F)c(F)cc1C(=O)Nc1ccccc1C(=O)O)c1ccccc1F [Compound 35j] ; field requested: inhibition at 5 µM
*A* 94

*Q* # inhibition at 5 µM lookup, item COc1ccc(C(=O)O)c(NC(=O)c2ccccc2NC(=O)c2ccccc2F)c1 [Compound 35c]
*A* 79

*Q* Param item = O=C(Nc1ccccc1C(=O)Nc1ccccc1C(=O)O)c1ccccc1F [Compound 17h] ; retrieve measured inhibition at 5 µM.
*A* 96

*Q* Would you mind telling me what inhibition at 5 µM value was observed for O=C(Nc1ccccc1C(=O)Nc1ccc(Cl)cc1C(=O)O)c1ccccc1F [Compound 35b] ?
*A* 0

*Q* I would be grateful if you could share the reported inhibition at 5 µM for COc1ccc(NC(=O)c2ccccc2NC(=O)c2ccccc2F)c(C(=O)O)c1 [Compound 35d] .
*A* 28

*Q* // lookup inhibition at 5 µM for O=C(O)CCC(=O)Nc1ccccc1C(=O)Nc1ccccc1C(=O)O [Compound 17f]
*A* 0

*Q* Suppose we examine the molecule O=C(Nc1ccccc1C(=O)Nc1cc(Cl)ccc1C(=O)O)c1ccccc1F [Compound 35a] ; what inhibition at 5 µM value has been reported?
*A* 0

*Q* Please report the recorded inhibition at 5 µM for O=C(O)c1ccccc1NC(=O)c1ccccc1NCc1ccccc1 [Compound 17g] .
*A* 44

*Q* Suppose we examine the molecule COc1ccc(NC(=O)c2ccccc2F)c(C(=O)Nc2ccccc2C(=O)O)c1 [Compound 35i] ; what inhibition at 5 µM value has been reported?
*A* 91

###

Test system: cells
Assay: Cellular toxicity of select compounds (% dead cells, CC50)
Assay type: cell-based
Settings: 60 μM, 24 h
Record form. Attribute: Toxicity at 60 μM (% dead cells after 24 h). Fill in for each entry.

*Q* Record request: Toxicity at 60 μM (% dead cells after 24 h) value, item COc1ccc(NC(=O)c2ccccc2F)c(C(=O)Nc2ccccc2C(=O)O)c1 [Compound 35i]
*A* 28 ± 12%

*Q* Bench note: what Toxicity at 60 μM (% dead cells after 24 h) did O=C(Nc1ccccc1C(=O)Nc1ccccc1C(=O)O)c1ccccc1F [Compound 17h] show?
*A* 29 ± 12%

*Q* # get_value(readout='Toxicity at 60 μM (% dead cells after 24 h)', item= O=C(Nc1ccccc1C(=O)Nc1ccccc1C(=O)O)c1ccc(F)cc1 [Compound 17j] )
*A* 10 ± 10%

*Q* Recorded Toxicity at 60 μM (% dead cells after 24 h) of O=C(Nc1ccc(Cl)cc1C(=O)Nc1ccccc1C(=O)O)c1ccccc1F [Compound 35g] , please.
*A* 24 ± 9%

*Q* Bench note: what Toxicity at 60 μM (% dead cells after 24 h) did "O=C(Nc1ccccc1C(=O)Nc1ccccc1C(=O)O)c1ccccc1" show?
*A* 29 ± 3%

*Q* Form field: reported Toxicity at 60 μM (% dead cells after 24 h) of O=C(Nc1cc(Cl)ccc1C(=O)Nc1ccccc1C(=O)O)c1ccccc1F [Compound 35f]
*A* 25 ± 8%

*Q* Query (compound): COc1ccc(C(=O)Nc2ccccc2C(=O)O)c(NC(=O)c2ccccc2F)c1 [Compound 35h] ; field requested: Toxicity at 60 μM (% dead cells after 24 h)
*A* 18 ± 15%

*Q* # input compound: O=C(O)c1ccccc1NC(=O)c1ccccc1NCc1ccccc1 [Compound 17g] ; wanted: its Toxicity at 60 μM (% dead cells after 24 h)
*A* 11 ± 13%

*Q* Item O=C(Nc1cc(F)c(F)cc1C(=O)Nc1ccccc1C(=O)O)c1ccccc1F [Compound 35j] has what recorded Toxicity at 60 μM (% dead cells after 24 h)?
*A* 16 ± 9%
